meta.source: PubChem BioAssay

assay_remarks: fission yeast growth modulation, primary screen, strain 972, OD600, 24 h, no modulator (AID 1090);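 also: basal condition with compound alone and no growth modifier present; test concentration not given here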
stated_conditions: S. pombe 972 growth, higher = more signal, called active from +8 up or from −8 down
Calls of active or inactive are those of the source.
molecules and their reported z-score

Guide cases for z-score, answers given:
{"molecule": "CO[C@@H]1C=CCC(=O)N2CCC[C@H]2C(=O)OC[C@@H](C)C(=O)OC[C@H]1C", "endpoint": "z-score", "data_value": "-1.32 (inactive)"}
{"molecule": "O=C1C[C@@H](O)[C@@H](O)[C@@H]2[C@@H]3C(=O)N(C[C@@H]4CCCO4)C(=O)[C@@H]3CC[C@@H]12", "endpoint": "z-score", "data_value": "-0.519 (inactive)"}
{"molecule": "COC(=O)[C@H](C)NC(=O)CCC1CC(OC(=O)NCc2cccc3ccccc23)CC2(CCCC(COC(=O)NCC(c3ccccc3)c3ccccc3)O2)O1 (some centres undefined)", "endpoint": "z-score", "data_value": "0.104 (inactive)"}

Proceeding to the next molecule to report its z-score.
Reported z-score, molecule O=C1[C@H]2[C@H]3[C@H](O)[C@H](O)CC(=NOCc4ccccc4)[C@@H]3CC[C@H]2C(=O)N1c1ccc(F)cc1F : ____
-0.469 (inactive)

---

assay_remarks: osmotic lysis modulators in infected erythrocytes, primary screen, PSAC antagonist project, cell-based, P. falciparum Indochina, OD700, 3 h (AID 1156)
stated_conditions: higher = more signal, called active from +8 up or from −8 down
endpoint: z-score
Enter the number alone.

Guide cases for z-score, answers given:
{"molecule": "CCOC(=O)[C@H](Cc1ccccc1)NC(=O)CCC1CC(OC(=O)NCCc2ccc(F)cc2)CC2(CCCC(COC(=O)NCCc3ccc(Cl)cc3)O2)O1 (some centres undefined)", "z-score": 0.056}
{"molecule": "COC(=O)[C@H](C)NC(=O)CCC1CC(OC(=O)NCCc2ccc(F)cc2)CC2(CCCC(COC(=O)NCc3cccc(C(F)(F)F)c3)O2)O1 (some centres undefined)", "z-score": -0.45}
{"molecule": "CCCNC(=O)OC[C@H]1O[C@H](CCON=Cc2ccc(C(=O)N3[C@H](c4ccc(C)cc4)[C@@H](C)CC[C@H]3C(=O)OC)cc2)C=C[C@@H]1Oc1ccc(OC)cc1", "z-score": 0.0952}
{"molecule": "CCCNC(=O)OC[C@H]1O[C@H](CCON=C(C)CCC(=O)OC[C@H]2O[C@H](c3ccccc3)C=C[C@@H]2Oc2ccc(OC)cc2)C=C[C@@H]1Oc1ccc(OC)cc1", "z-score": 0.753}
{"molecule": "Cc1ccc(S(=O)(=O)N[C@H]2COC(=O)CC=C[C@@H](C)COC(=O)CC=C[C@@H]2C)cc1", "z-score": -0.424}
{"molecule": "CO[C@H]1COC(=O)[C@@H](C)COC(=O)[C@H](COCc2ccccc2)NC(=O)CC=C[C@H]1C", "z-score": -0.0011}

Reported z-score, molecule CCOC(=O)[C@H](Cc1ccccc1)NC(=O)CCC1CC(OC(=O)NCc2cccc3ccccc23)CC2(CCCC(COC(=O)NCc3cccc(C(F)(F)F)c3)O2)O1 (some centres undefined) : ____
0.654

Cool, now CCCNC(=O)OC[C@H]1O[C@H](CCON=C(C)CCN2CCCc3nc(C)c(C)cc32)C=C[C@@H]1Oc1ccc(OC)cc1
0.99

Cool, now O=C1C[C@@H](O)[C@@H](O)[C@@H]2[C@@H]3C(=O)N(C[C@@H]4CCCO4)C(=O)[C@@H]3CC[C@@H]12
1

Cool, now O=C1[C@H]2[C@H]3[C@H](O)[C@H](O)CC(=NOCc4ccccc4)[C@@H]3CC[C@H]2C(=O)N1Cc1ccc2c(c1)OCO2
1.06

Cool, now CC(C)=CCCC(C)=CCON=C1C[C@@H](O)[C@@H](O)[C@@H]2[C@@H]3C(=O)N(Cc4ccccc4)C(=O)[C@@H]3CC[C@H]12
0.957

---

assay_remarks: COS7 lysate on small-molecule microarray, probe aHis, 635 nm (AID 1123);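 also: z-score combines 667nm fluorescence intensity with signal-to-noise per printed compound spot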
stated_conditions: COS7 cell lysate, fluorescence, higher = more signal
Is composite z-score at least 0.3? Then True. If not, False.

// known answers, use as guide
{"compound": "CCN1C(=O)[C@H]2[C@H]3[C@H](O)[C@H](O)CC(=NOCC(C)C)[C@@H]3CC[C@H]2C1=O", "group": "True"}
{"compound": "COc1ccc(COC(=O)NN=C2C[C@@H](O)[C@@H](O)[C@@H]3[C@@H]4C(=O)N(Cc5ccccc5)C(=O)[C@@H]4CC[C@H]23)cc1", "group": "True"}
{"compound": "CCOC(=O)NN=C1C[C@@H](O)[C@@H](O)[C@@H]2[C@@H]3C(=O)N(c4cccc(Oc5ccccc5)c4)C(=O)[C@@H]3CC[C@H]12", "group": "True"}
{"compound": "CCOC(=O)[C@H](Cc1ccccc1)NC(=O)CCC1CC(OC(=O)NCCc2ccc(F)cc2)CC2(CCCC(COC(=O)NCCc3ccccc3OC)O2)O1 (some centres not stated)", "group": "True"}
{"compound": "CCC(=O)[C@@]1(O)C(=O)N2C(=C3C(=O)OCC[C@@H]31)N(Cc1ccccc1)C(C)=C(C(=O)OC)[C@H]2c1ccccc1", "group": "False"}

Given the entry C#CCCCON=C1C[C@@H](O)[C@@H](O)[C@@H]2[C@@H]3C(=O)N(Cc4ccccc4)C(=O)[C@@H]3CC[C@@H]12 , answer whether its composite z-score meets or surpasses 0.3.
False

---

compounds and their reported z-score
assay_remarks: P. aeruginosa biofilm formation inhibitors, primary screen, strain PAO1, LB-PBS medium, absorbance 600 nm (AID 1176); also: test concentration not given here
stated_conditions: P. aeruginosa PAO1 growth/biofilm, A600, 12 h; higher = more signal
Active and inactive are the calls of the source. No rule for the calls is given here.

Guide cases for z-score, answers given:
{"compound": "COC(=O)[C@H](C)NC(=O)CCC1CC(OC(=O)NCc2ccc3c(c2)OCO3)CC2(CCCC(COC(=O)NCCc3ccccc3OC)O2)O1 (stereo partly drawn)", "z-score": "0.238 (inactive)"}
{"compound": "COC(=O)[C@H]1O[C@@H](c2c(OC)c(OC)c(C)c(OC)c2OC)[C@H](C)[C@@H](O)[C@H]1C", "z-score": "0.417 (inactive)"}
{"compound": "CC(CCN1CCCCc2nc(C)c(C)cc21)=NOC[C@@H](C)[C@H](OCc1ccccc1)C(C)C", "z-score": "0.147 (inactive)"}
{"compound": "CO[C@H]1COC(=O)CC=C[C@@H](C)[C@H](OC)COC(=O)CCC[C@@H]1C", "z-score": "-0.172 (inactive)"}
{"compound": "CC(C)(C)N1C(=O)[C@H]2[C@H]3[C@H](O)[C@H](O)CC(=O)[C@@H]3CC[C@H]2C1=O", "z-score": "0.27 (inactive)"}
{"compound": "O=C1C[C@@H](O)[C@@H](O)[C@@H]2[C@@H]3C(=O)N(C[C@@H]4CCCO4)C(=O)[C@@H]3CC[C@H]12", "z-score": "-0.744 (inactive)"}
{"compound": "COc1ccc(O[C@@H]2[C@H](O)CO[C@H]2C=Cc2ccccc2)cc1", "z-score": "0.83 (inactive)"}

Proceeding to the next compound to report its z-score.
Reported z-score, compound CCN1C(=O)[C@H]2[C@H]3[C@H](O)[C@H](O)CC(=NO[C@@H](C)c4cn([C@H](CO)Cc5ccccc5)nn4)[C@@H]3CC[C@H]2C1=O : ____
0.135 (inactive)

---

assay_remarks: fission yeast growth modulation, primary screen, strain 972, OD600, 24 h, no modulator (AID 1090);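 also: basal condition with compound alone and no growth modifier present; test concentration not given here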
stated_conditions: S. pombe 972 growth, higher = more signal, called active from +8 up or from −8 down
Calls of active or inactive are those of the source.
compounds and their reported z-score

Guide cases for z-score, answers given:
{"compound": "CO[C@H]1COC(=O)[C@@H]2CCCN2C(=O)CC=C[C@@H](C)[C@H](OC)COC(=O)[C@@H](OCc2ccccc2)C=C[C@@H]1C", "z-score": "-0.826 (inactive)"}
{"compound": "Cc1ccc(S(=O)(=O)NC(CCc2ccccc2)CC(=O)C(C)(C)C)cc1 (stereo not given)", "z-score": "-1.76 (inactive)"}
{"compound": "CC(C)(C)N1C(=O)[C@H]2[C@H]3[C@H](O)C=CC(=O)[C@@H]3CC[C@H]2C1=O", "z-score": "0.632 (inactive)"}
{"compound": "CC(C)CON=C1C[C@@H](O)[C@@H](O)[C@@H]2[C@@H]3C(=O)N(C[C@@H]4CCCO4)C(=O)[C@@H]3CC[C@@H]12", "z-score": "0.283 (inactive)"}
{"compound": "Cc1cc2c(nc1C)CCCCN2CC(C)ON=C1[C@H]2CCn3c(=O)n(-c4ccccc4)c(=O)n3[C@H]2[C@H](O)[C@@H]2O[C@H]12 (stereo not given in full)", "z-score": "-0.167 (inactive)"}
{"compound": "COC(=O)[C@@H]1CC[C@H](C)[C@@H](c2ccc(C)cc2)N1C(=O)c1ccc(C=NO[C@@H]2O[C@H](COC(C)=O)[C@@H](OC(C)=O)[C@H](OC(C)=O)[C@H]2OC(C)=O)cc1", "z-score": "-0.631 (inactive)"}
{"compound": "CC(=O)OC[C@H]1O[C@@H](ON=C(C)CCN2CCCc3nc(C)c(C)cc32)[C@H](OC(C)=O)[C@@H](OC(C)=O)[C@@H]1OC(C)=O", "z-score": "0.0313 (inactive)"}
{"compound": "O=C1C[C@@H](O)[C@@H](O)[C@@H]2[C@@H]3C(=O)N(Cc4ccccc4)C(=O)[C@@H]3CC[C@@H]12", "z-score": "-0.136 (inactive)"}
{"compound": "CON=C(C)CCC(=O)OC[C@H]1O[C@H](c2ccccc2)C=C[C@@H]1Oc1ccc(OC)cc1", "z-score": "-0.241 (inactive)"}
{"compound": "CO[C@H]1COC(=O)[C@H](C)NC(=O)CC=C[C@@H](C)[C@H](OC)COC(=O)[C@@H](OCc2ccccc2)C=C[C@@H]1C", "z-score": "-0.123 (inactive)"}

Reported z-score, compound C#CCCCON=C1C[C@@H](O)[C@@H](O)[C@@H]2[C@@H]3C(=O)N(C(C)(C)C)C(=O)[C@@H]3CC[C@@H]12 : ____
0.0546 (inactive)
